Test system: Escherichia coli TOP10
method: shrunken log2 fold change of peptide-encoding DNA abundance (4.5 h post-induction vs induction); higher = less antimicrobial activity (less host growth inhibition)
condition_info: time post-induction: 4.5 h; library: site-saturation at positions 5, 18, 19, 20
Reported shrunken log2 fold change values for a set of sequences
Respond with the number and no other words.

Query `RRIRDRPPRLPRPRPRPQVFPRP` yields shrunken log2 fold change of -0.101

----------
System: Escherichia coli TOP10
method: shrunken log2 fold change of peptide-encoding DNA abundance (4.5 h post-induction vs induction); higher = less antimicrobial activity (less host growth inhibition)
condition_info: time post-induction: 4.5 h; library: site-saturation at positions 5, 18, 19, 20
experimental_readout: shrunken log2 fold change

RRIRRRPPRLPRPRPRPHMRPRP: 0.29
RRIRPRPPRLPRPRPRPPAKPRP: 0.657
RRIRTRPPRLPRPRPRPVGQPRP: 0.00905

Noted for `RRIRSRPPRLPRPRPRPHMYPRP` : its shrunken log2 fold change reads -0.37

GET /value?item= `RRIRRRPPRLPRPRPRPTGFPRP` &field=shrunken log2 fold change returns 0.728

shrunken log2 fold change for `RRIRHRPPRLPRPRPRPEDFPRP` is 0.0333

----------
Tested on: Escherichia coli TOP10;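 note: peptides expressed intracellularly from a pBAD plasmid library in pooled LB shake-flask culture, induced with 0.3% L-arabinose, DNA abundance read by NGS, three biological replicates, DESeq2 with apeglm shrinkage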
method: shrunken log2 fold change of peptide-encoding DNA abundance (4.5 h post-induction vs induction); higher = less antimicrobial activity (less host growth inhibition)
condition_info: time post-induction: 4.5 h; library: site-saturation at positions 5, 18, 19, 20
Returns TRUE if the recorded shrunken log2 fold change is greater than or equal to -0.03, and FALSE otherwise.

Consider the following illustrative entries.
RRIRPRPPRLPRPRPRPAHTPRP: FALSE
RRIRLRPPRLPRPRPRPYYHPRP: FALSE
RRIRKRPPRLPRPRPRPIDWPRP: TRUE
RRIRFRPPRLPRPRPRPHICPRP: TRUE
RRIRHRPPRLPRPRPRPFKKPRP: TRUE
RRIRFRPPRLPRPRPRPDAKPRP: TRUE
RRIRRRPPRLPRPRPRPDEEPRP: TRUE
RRIRHRPPRLPRPRPRPMLHPRP: TRUE

For this sequence, is measured shrunken log2 fold change -0.03 or higher? `RRIRDRPPRLPRPRPRPLRLPRP`
TRUE

Check if shrunken log2 fold change >= -0.03 (inclusive). Item: `RRIRSRPPRLPRPRPRPWFGPRP`
FALSE

Please indicate if the recorded shrunken log2 fold change for `RRIRLRPPRLPRPRPRPLDVPRP` meets or exceeds -0.03.
FALSE

Decide: shrunken log2 fold change of `RRIRKRPPRLPRPRPRPRGWPRP` >= -0.03?
TRUE

Form field: shrunken log2 fold change at least -0.03? Entry: `RRIRYRPPRLPRPRPRPRTPPRP`
FALSE

API: above_or_equal(metric=shrunken log2 fold change, cutoff=-0.03) for item `RRIRIRPPRLPRPRPRPRWEPRP`
TRUE

Kindly determine if shrunken log2 fold change recorded for `RRIRKRPPRLPRPRPRPLHYPRP` is above or exactly -0.03.
TRUE

Evaluate `RRIRFRPPRLPRPRPRPCFIPRP` : shrunken log2 fold change at minimum -0.03?
FALSE

Reported shrunken log2 fold change at or above -0.03? `RRIRSRPPRLPRPRPRPEARPRP`
TRUE

Could you verify whether the entry `RRIRHRPPRLPRPRPRPFLFPRP` shows shrunken log2 fold change of no less than -0.03?
FALSE
